biological target: E. coli FtsZ (Escherichia coli, UniProt P0A9A6); construct: made in house; host or cells: E. coli BL21(λDE3); assay: FtsZ GTPase assay (malachite green); format: biochemical; conditions: 2 μM E. coli FtsZ, 0.5 mM GTP, pH 6.5, 25° C.; read-out: Inhibition of E. coli FtsZ GTPase activity, IC50
Sequence (P0A9A6 whole entry): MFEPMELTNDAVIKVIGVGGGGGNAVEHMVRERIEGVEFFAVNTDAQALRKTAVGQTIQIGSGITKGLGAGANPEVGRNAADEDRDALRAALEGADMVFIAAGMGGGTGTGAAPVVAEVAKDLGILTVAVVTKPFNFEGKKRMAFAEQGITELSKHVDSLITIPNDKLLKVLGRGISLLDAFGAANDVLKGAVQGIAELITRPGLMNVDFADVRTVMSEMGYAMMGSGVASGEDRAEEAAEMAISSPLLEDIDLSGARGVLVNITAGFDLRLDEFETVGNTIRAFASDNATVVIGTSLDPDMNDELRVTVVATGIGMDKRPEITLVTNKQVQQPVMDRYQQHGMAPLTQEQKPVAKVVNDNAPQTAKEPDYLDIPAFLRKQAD
quantity-measured: pIC50
Give only the number. pIC50 is defined as minus log10 of concentration in molar units.

input: Could you tell me which pIC50 is on file for `CC(=O)c1c(O)c(Cc2ccccc2O)c(O)c(Cc2ccccc2O)c1O` ?
output: 4.22

input: Could you tell me which pIC50 is on file for O=C1C[C@@H](c2ccccc2)Oc2c(Cc3ccccc3O)c(O)c(Cc3ccccc3O)c(O)c21 (racemic) [Compound 2, (±)-Dichamanetin] ?
output: 4.90
